- tested-target: BACE1 (HTRF long substrate and FRET short substrate assays of Example 9D)
- assay-info: cell-based or functional assay
EC50, FRET short substrate reference

binder: 5891 (antibody, V domains shown, anti-BACE1 IgG) VH: QVQLVQSGAEVKKPGSSVKVSCKASGGTFSSYAISWVRQAPGQGLEWMGNIIPIFGPANYAQKFQGRVTITADESTSTAYMELSSLRSEDTAVYYCARSGGTKYGMLDVWGQGTMVTVSS VL: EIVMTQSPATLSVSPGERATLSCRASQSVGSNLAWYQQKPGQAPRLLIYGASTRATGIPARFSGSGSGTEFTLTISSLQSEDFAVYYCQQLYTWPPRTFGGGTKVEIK
EC50, FRET short substrate: 0.0124 µM
--
binder: 5905 (antibody, V domains shown, anti-BACE1 IgG) VH: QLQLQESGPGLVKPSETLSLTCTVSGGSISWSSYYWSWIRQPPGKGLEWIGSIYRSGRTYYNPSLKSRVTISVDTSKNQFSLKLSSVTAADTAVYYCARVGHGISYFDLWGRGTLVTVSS VL: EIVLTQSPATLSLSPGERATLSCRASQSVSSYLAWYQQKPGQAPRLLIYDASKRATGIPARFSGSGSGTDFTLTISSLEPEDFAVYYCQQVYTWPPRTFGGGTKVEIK
EC50, FRET short substrate: 0.00133 µM
--
binder: 5894 (antibody, V domains shown, anti-BACE1 IgG) VH: QVQLVQSGAEVKKPGSSVKVSCKASGGTFSGYAISWVRQAPGQGLEWMGNIIPGFGTANYAQKFQGRVTITADESTSTAYMELSSLRSEDTAVYYCARSGGTKYGMLDVWGQGTMVTVSS VL: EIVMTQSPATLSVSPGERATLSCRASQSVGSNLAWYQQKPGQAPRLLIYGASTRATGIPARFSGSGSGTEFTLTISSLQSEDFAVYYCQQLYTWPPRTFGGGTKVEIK
EC50, FRET short substrate: 0.00858 µM
--
binder: 5892 (antibody, V domains shown, anti-BACE1 IgG) VH: QVQLVQSGAEVKKPGSSVKVSCKASGGTFSSYAISWVRQAPGQGLEWMGNIIPIFGTATYAQKFQGRVTITADESTSTAYMELSSLRSEDTAVYYCARSGGTKYGMLDVWGQGTMVTVSS VL: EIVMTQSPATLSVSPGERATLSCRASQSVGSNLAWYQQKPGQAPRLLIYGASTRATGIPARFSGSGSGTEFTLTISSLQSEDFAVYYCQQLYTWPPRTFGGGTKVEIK
EC50, FRET short substrate: 0.0164 µM
